target: T1, CD123 expressed on the surface of Molm-13 (Molm-13 N1) tumor cells (human, UniProt P26951 19-378); test: flow cytometry on CD123-expressing Molm-13 N1 tumor cells, monospecific format
T1 construct: whole, on cells; also called CD123-expressing tumor cells; CD123 expressed on tumor cells
T1 sequence (P26951 19-378): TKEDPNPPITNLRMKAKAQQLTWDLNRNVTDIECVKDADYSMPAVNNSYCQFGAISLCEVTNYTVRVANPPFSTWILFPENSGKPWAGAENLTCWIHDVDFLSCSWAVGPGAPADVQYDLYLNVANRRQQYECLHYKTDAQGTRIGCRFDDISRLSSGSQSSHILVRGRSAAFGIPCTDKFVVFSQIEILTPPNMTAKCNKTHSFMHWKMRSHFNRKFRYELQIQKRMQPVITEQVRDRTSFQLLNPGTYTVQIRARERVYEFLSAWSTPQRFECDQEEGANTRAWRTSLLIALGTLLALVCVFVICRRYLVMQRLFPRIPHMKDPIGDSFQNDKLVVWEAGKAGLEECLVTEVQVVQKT
Friendly reminder: EC50 below 8 nM is Criterion met, at or above is Criterion not met.

# binder, classification
data = [
    ("DARPin® protein #14 (designed binder) DLGKKLLQAALEGQLDEVRELLKAGADVNAKDIEGYTPLHLAAALGHLEIVEVLLKAGADVNAKDQIGRTPLHLAAYKGHLEIVEVLLKAGADVNAQDIIGQTPADLAAQRGHQDIAEVLQKAA", "Criterion met"),
    ("DARPin® protein #2 (designed binder) DLGKKLLEAALEGQLDEVRELLKAGADVNAKDQEGYTPLHLAAALGHLEIVEVLLKAGADVNAKDSIGRTPLHLAAYKGHLEIVEVLLKAGADVNAQDLLGETPADLAAEQGHQDIAEVLQKAA", "Criterion not met"),
    ("DARPin® protein #13 (designed binder) DLGKKLLEAALEGQLDEVRELLKAGADVNAKDQEGYTPLHLAAALGHLEIVEVLLKAGADVNAKDQIGRTPLHLAAYKGHLEIVEVLLKAGADVNAQDIIGQTPADLAAQRGHQDIAEVLQKAA", "Criterion met"),
    ("DARPin® protein #3 (monospecific format) (designed binder) DLGKKLLQAARAGQLDEVRELLKAGADVNAKDQYGRTPLHLAAIKGHLEIVEVLLKAGADVNAKDSLGYTPLHLAAVEGPLEIVEVLLKAGADVNAKDAYGQTPLHIAAAWGHLEIVEVLLKAVADVNAQDKSGKTPADLAARAGHQDIAEVLQKAA", "Criterion not met"),
    ("DARPin® protein #12 (designed binder) DLGWKLLDAAEIGQLDEVRILLKAGADVNAKDKQGITPLHIAAAHGHLEIVEVLLKAGADVNAKDEIGRTPLHLAAFKGHLEIVEVLLKAGADVNAQDIIGETPADLAAVRGHQDIAEVLQKAA", "Criterion met"),
]

meta.source: patent US20240150475A1
